target: Human CaV2.2 channels (Homo sapiens); construct: expressed in transfected cells; experiment: Fluorescent assay for CaV2.2 channels using potassium depolarization to induce channel opening (FLIPR, Fluo-4); type: cell-based; settings: 3 μM test compound, 30 mM KCl, HEK293 cells stably expressing human CaV2.2; read-out: %-Inhib (CaV2.2) @3 μM @30 mM KCl
Sequence (Q00975 whole entry): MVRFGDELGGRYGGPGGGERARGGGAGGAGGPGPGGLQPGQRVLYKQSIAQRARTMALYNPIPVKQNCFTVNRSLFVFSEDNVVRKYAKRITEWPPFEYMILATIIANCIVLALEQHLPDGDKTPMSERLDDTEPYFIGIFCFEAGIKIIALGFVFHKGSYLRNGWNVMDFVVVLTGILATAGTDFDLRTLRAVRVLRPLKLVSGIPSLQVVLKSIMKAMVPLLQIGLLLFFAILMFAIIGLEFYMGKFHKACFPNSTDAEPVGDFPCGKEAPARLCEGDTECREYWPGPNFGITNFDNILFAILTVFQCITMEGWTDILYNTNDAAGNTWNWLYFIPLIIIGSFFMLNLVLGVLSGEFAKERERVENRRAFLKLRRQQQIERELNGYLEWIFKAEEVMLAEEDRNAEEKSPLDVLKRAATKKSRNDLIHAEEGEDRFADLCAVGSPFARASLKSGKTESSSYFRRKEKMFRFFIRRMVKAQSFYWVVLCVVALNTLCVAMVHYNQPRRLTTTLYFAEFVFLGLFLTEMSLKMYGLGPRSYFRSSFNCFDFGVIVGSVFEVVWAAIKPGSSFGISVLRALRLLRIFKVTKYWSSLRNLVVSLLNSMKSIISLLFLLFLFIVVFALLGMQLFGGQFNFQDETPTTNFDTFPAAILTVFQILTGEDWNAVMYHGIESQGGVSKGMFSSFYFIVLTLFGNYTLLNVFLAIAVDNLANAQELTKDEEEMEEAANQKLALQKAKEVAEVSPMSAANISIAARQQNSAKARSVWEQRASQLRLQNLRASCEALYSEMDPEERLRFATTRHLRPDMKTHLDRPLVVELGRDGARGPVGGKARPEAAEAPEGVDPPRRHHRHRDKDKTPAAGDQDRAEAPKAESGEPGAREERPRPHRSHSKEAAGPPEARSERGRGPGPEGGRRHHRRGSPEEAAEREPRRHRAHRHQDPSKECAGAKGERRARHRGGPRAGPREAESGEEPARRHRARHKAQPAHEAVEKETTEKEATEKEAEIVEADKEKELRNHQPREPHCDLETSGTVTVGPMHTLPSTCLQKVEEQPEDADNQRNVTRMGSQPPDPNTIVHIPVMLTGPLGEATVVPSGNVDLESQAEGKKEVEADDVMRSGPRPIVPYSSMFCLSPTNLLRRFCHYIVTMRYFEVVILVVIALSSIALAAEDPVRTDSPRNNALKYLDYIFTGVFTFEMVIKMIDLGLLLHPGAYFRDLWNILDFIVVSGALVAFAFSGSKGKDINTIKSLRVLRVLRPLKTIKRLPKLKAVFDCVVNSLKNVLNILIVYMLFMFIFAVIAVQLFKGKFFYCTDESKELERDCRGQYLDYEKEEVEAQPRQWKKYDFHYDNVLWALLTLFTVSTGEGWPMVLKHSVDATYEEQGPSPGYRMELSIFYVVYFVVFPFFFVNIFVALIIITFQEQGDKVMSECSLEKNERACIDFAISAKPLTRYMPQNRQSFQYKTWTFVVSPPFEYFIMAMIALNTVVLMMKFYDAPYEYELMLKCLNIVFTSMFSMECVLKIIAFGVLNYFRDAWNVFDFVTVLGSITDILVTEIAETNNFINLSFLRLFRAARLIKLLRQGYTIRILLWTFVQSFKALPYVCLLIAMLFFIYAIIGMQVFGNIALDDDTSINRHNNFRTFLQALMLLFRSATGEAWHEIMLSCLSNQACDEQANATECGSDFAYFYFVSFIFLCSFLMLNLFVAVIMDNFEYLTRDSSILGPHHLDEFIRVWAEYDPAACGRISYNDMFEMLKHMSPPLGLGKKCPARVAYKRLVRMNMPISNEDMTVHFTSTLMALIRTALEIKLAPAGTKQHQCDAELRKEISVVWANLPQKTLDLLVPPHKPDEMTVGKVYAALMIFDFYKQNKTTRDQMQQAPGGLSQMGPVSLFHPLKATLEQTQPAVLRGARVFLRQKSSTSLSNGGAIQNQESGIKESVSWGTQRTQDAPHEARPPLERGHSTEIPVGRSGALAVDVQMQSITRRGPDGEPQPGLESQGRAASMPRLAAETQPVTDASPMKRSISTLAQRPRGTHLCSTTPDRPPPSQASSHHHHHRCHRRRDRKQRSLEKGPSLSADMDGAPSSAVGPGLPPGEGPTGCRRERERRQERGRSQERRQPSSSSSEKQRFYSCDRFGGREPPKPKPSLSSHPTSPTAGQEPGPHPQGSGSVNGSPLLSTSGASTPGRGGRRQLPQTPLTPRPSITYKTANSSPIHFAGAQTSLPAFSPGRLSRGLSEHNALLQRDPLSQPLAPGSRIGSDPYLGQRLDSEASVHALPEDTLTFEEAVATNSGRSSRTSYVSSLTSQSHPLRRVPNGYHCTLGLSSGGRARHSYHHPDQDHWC
Sequence (P54289 25-1103, further chain): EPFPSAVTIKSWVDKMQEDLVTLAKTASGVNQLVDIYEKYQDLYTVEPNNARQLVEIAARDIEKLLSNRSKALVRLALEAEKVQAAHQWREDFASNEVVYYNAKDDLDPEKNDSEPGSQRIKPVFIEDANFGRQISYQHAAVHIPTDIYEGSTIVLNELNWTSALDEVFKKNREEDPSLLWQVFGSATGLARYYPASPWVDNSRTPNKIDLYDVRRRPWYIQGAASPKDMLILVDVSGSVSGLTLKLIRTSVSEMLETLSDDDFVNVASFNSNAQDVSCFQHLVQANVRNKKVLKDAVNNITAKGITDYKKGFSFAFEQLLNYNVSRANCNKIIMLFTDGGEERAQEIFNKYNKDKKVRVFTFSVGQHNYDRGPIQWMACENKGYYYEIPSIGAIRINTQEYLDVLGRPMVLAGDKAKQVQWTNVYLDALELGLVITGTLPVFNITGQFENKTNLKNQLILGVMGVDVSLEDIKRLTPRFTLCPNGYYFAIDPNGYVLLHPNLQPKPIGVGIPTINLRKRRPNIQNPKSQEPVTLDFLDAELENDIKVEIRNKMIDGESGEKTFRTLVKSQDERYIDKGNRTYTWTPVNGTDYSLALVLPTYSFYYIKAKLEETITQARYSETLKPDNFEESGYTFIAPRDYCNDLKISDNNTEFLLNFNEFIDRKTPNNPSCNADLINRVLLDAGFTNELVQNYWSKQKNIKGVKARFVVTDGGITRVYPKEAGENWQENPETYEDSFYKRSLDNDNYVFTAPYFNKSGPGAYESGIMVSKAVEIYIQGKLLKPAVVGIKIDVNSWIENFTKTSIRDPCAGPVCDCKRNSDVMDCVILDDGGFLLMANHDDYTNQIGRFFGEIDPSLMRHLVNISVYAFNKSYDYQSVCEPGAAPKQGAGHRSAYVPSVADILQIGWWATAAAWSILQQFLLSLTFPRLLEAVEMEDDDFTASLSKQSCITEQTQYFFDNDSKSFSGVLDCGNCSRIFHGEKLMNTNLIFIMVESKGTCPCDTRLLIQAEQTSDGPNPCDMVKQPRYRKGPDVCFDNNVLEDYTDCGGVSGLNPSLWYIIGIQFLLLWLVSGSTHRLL
Sequence (P54284 whole entry, further chain): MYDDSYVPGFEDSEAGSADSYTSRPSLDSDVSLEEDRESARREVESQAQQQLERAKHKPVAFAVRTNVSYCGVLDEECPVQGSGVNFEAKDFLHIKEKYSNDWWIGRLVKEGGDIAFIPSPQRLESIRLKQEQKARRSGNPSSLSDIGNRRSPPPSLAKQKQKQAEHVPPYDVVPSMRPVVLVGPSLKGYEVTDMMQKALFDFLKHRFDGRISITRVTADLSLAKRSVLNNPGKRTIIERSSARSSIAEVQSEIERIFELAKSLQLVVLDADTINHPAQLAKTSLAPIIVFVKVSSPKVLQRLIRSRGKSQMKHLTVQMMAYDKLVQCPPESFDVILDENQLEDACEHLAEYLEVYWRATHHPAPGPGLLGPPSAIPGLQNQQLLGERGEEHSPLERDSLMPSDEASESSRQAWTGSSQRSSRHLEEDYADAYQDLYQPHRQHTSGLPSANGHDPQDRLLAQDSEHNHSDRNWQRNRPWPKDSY
ASSAY_ENDPOINT: inhibition at 3 µM

Could you share which inhibition at 3 µM value was measured for Cc1c(-c2ccc(Cl)c(F)c2)c(C(=O)N2CC(O)C2)n(Cc2ccccc2)c1C(F)(F)F ? 40 to 75%

Could you share which inhibition at 3 µM value was measured for Cc1c(-c2ccc(F)cc2)c(C(=O)N2CCOCC2)n(Cc2ccccc2)c1C(F)(F)F ? > 95%

Could you share which inhibition at 3 µM value was measured for Cc1c(-c2ccc(Cl)cc2F)c(C(=O)N(CCS(C)(=O)=O)C(C)C)n(Cc2ccccc2)c1C(F)(F)F ? 75 to 95%

Could you share which inhibition at 3 µM value was measured for Cc1c(-c2ccc(OC(F)(F)F)cc2)c(C(=O)N(C)C(C)(C)CO)n(Cc2ccccc2)c1C(F)(F)F ? > 95%

Could you share which inhibition at 3 µM value was measured for Cc1c(-c2ccc(Cl)cc2)c(C(=O)NC2CCOCC2)n(Cc2ccccc2)c1C(F)(F)F ? 75 to 95%

Could you share which inhibition at 3 µM value was measured for Cc1c(-c2ccc(F)cc2)c(C(=O)N(C)CCS(C)(=O)=O)n(Cc2ccccc2)c1C(F)(F)F ? > 95%

Could you share which inhibition at 3 µM value was measured for Cc1c(-c2ccc(Cl)cc2)c(C(=O)N(C)C(CO)C(C)(C)C)n(Cc2ccccc2)c1C(F)(F)F (centres unmarked) ? > 95%

Could you share which inhibition at 3 µM value was measured for Cc1c(-c2ccc(Cl)cc2)c(C(=O)N(C)CCC(C)(C)O)n(Cc2ccccc2)c1C(F)(F)F ? > 95%

Source listed as patent US9302988B2.
